System: Ax 7 Corynebacterium group G
Experiment: MIC microtiter plate test, axilla bacteria
Type: cell-based
Settings: Table 8; Corynebact. Ax7; 24 hours
PARAMETER: Bacteriostatic activity (concentration needed for at least 80% reduction in growth)

* COC1CC(C2CC3CC2C(C)C3(C)C)CCC1O (single isomer, unassigned; peak a) [Peak A] | 0.0048 percent (w/v)
* Oc1cc(Cl)ccc1Oc1ccc(Cl)cc1Cl [Triclosan] | 0.0025 percent (w/v)
* CC(C)=CCCC(C)=CCCC(C)=CCO [Farnesol, 3,7,11-trimethyl-2,6,10-dodecatrien-1-ol] | 0.0137 percent (w/v)

Kindly consider the entry below.
What value of measured Bacteriostatic activity (concentration needed for at least 80% reduction in growth) is listed for COC1CC(C2CC3CC2C(C)C3(C)C)CCC1O (single isomer, unassigned; peak b) [Peak B] ? 0.0028 percent (w/v)
